# key: entry, value: inhibition
molecular target: Receptor tyrosine-protein kinase erbB-4 (Homo sapiens) (UniProt Q15303); conditions: at 1 µM;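 further: each value is a mean percent inhibition of ERBB4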
Sequence (Q15303 whole entry): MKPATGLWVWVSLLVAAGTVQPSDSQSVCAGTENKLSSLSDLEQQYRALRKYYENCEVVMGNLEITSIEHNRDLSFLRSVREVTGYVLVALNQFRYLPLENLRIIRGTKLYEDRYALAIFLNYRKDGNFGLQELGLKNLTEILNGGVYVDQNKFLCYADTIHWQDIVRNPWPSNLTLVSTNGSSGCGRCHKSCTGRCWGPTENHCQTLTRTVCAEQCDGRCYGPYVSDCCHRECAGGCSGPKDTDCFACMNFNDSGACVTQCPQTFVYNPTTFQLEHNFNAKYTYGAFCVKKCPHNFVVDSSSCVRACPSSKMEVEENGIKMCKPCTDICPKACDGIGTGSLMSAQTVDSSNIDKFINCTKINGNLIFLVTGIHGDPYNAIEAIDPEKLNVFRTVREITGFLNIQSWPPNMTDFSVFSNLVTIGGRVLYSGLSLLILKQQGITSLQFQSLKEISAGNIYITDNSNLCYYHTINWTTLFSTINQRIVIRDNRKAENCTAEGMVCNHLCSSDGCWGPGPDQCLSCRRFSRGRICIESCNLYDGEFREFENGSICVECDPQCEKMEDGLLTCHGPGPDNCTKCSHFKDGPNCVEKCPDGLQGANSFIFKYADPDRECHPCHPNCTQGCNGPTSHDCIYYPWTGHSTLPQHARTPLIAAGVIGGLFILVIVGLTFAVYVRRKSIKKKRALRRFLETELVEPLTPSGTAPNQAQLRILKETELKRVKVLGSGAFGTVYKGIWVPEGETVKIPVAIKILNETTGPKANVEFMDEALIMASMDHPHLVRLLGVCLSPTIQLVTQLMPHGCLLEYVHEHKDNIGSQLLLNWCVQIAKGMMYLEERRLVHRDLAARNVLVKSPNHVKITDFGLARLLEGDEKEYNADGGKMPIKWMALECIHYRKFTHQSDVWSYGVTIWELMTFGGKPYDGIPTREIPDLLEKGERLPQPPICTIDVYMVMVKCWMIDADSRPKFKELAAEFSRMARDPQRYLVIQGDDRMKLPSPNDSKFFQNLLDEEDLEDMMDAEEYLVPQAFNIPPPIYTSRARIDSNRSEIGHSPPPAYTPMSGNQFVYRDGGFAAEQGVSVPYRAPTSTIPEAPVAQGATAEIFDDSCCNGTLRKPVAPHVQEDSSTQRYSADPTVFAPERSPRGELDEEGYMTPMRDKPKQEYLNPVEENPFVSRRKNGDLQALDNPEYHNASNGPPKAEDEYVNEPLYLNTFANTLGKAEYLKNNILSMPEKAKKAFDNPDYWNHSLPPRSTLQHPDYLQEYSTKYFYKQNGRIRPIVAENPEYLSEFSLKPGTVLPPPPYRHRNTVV
OBSERVED_PROPERTY: inhibition (%)

# MOLECULE, UNITS_LABEL, OBSERVED_RESULT
rows = [
    ("COc1cccc(-n2ncc3c(N/N=C/c4ccc(F)cc4)ncnc32)c1", "%", 11.2),
    ("Cc1ccc(O)cc1Nc1ccnc2cc(-c3ccccn3)ccc12", "%", 75.6),
    ("CC(C)(CO)CNC(=O)c1ccc2c(c1)/C(=N/Nc1ccc(S(N)(=O)=O)cc1)C(=O)N2", "%", 7.73),
    ("CCN1CCC(CC(=O)Nc2n[nH]c3nnc(-c4cccc(F)c4F)cc23)CC1", "%", 10.1),
    ("CS(=O)(=O)CCNCc1ccc(-c2ccc3ncnc(Nc4ccc(OCc5ccccc5)c(C(F)(F)F)c4)c3c2)o1", "%", 33.4),
    ("COC(=O)Nc1nc2ccc(Oc3ccc(NC(=O)Nc4cccc(Cl)c4)cc3)cc2[nH]1", "%", 9.87),
    ("CCc1nn2ncccc2c1-c1ccnc(NC2CC2)n1", "%", 8.22),
    ("COc1cc(/C=N/Nc2ncnc3[nH]ncc23)ccc1O", "%", 21.1),
    ("COC(=O)Nc1nc2ccc(S(=O)(=O)c3ccc(NC(=O)Nc4cc(C(F)(F)F)ccc4F)cc3)cc2[nH]1", "%", 12.2),
    ("COc1ccc(CNC(=O)c2ccc(-c3cc(-c4nnc(C)o4)ccc3C)cc2)cc1", "%", 7.19),
    ("COc1cc2c(cc1Nc1nc(Nc3ccsc3C(N)=O)c3cc[nH]c3n1)N(C(=O)CN(C)C)CCC2(C)C", "%", 36.4),
    ("CCOc1ccc2c(-c3ccnc(Nc4cccc(C(F)(F)F)c4)n3)cnn2n1", "%", 6.85),
    ("O=S(=O)(CCNCc1ccc(-c2ccc3ncnc(Nc4ccc(OCc5cccc(F)c5)c(Cl)c4)c3c2)o1)c1ccccc1", "%", 89),
    ("Fc1ccc(-c2nn3ccccc3c2-c2ccncc2)cc1", "%", 27.2),
    ("Cc1cccc(Nc2ncc(-c3ccccc3)o2)c1", "%", 8.57),
    ("COc1cc(Nc2nccc(Nc3ccc4c(C)n[nH]c4c3)n2)cc(OC)c1OC", "%", 27.6),
    ("COc1ccc(-c2cc3c(N)ncnc3o2)cc1", "%", 1.85),
    ("COc1ccc(-c2oc3ncnc(N)c3c2-c2ccc(NC(=O)Nc3cc(C(F)(F)F)ccc3F)cc2)cc1", "%", 14.6),
    ("CCNC(=O)O[C@H]1CN[C@H](C#Cc2cc3ncnc(Nc4ccc(OCc5cccc(F)c5)c(Cl)c4)c3s2)C1", "%", 101),
    ("N#Cc1c(NC(=O)CN2CCOCC2)sc2c1CCCC2", "%", 5.12),
    ("COc1ccc2[nH]c3c4[nH]c5ccc(OC)cc5c4c4c(c3c2c1)C(=O)NC4=O", "%", 45.9),
    ("NS(=O)(=O)c1ccc(N/N=C2\\C(=O)Nc3ccc4ncccc4c32)cc1", "%", 10.4),
    ("Clc1ccc(-c2nn3ncccc3c2-c2ccnc(Nc3ccccc3)n2)cc1", "%", 69.5),
    ("CN1CCC(n2cnc(-c3ccc(F)cc3)c2-c2ccnc(Nc3ccccc3)n2)CC1", "%", 27.2),
    ("N#Cc1c(NC(=O)c2ccc(F)cc2)sc2c1CCCC2", "%", 7.46),
    ("Cc1ccc2c(-c3ccnc(Nc4ccccc4)n3)c(-c3ccc(F)cc3)nn2n1", "%", 88.7),
    ("CC(=O)NCc1cccc(C#Cc2cncnc2Nc2ccc(OCc3cccc(F)c3)c(Cl)c2)c1", "%", 50.4),
    ("CCn1c(-c2nonc2N)nc2ccccc21", "%", 12.3),
    ("Fc1cccc(COc2ccc(Nc3ncnc4sc(-c5ccco5)cc34)cc2Cl)c1", "%", 75.8),
    ("CC(C)COC(=O)c1ccc2c(c1)/C(=C/Nc1ccc(S(N)(=O)=O)cc1)C(=O)N2", "%", -2.34),
    ("COC(=O)c1sc(-n2cnc3cc(OC)c(OC)cc32)cc1OCc1ccccc1C(F)(F)F", "%", 11),
    ("NC(=O)c1sc(-n2cnc3ccc(C(F)(F)F)cc32)cc1OCc1ccccc1Br", "%", 10.9),
    ("COc1ccc(-c2cc(-c3c[nH]nc3-c3ccccn3)ccn2)cc1", "%", 10.6),
    ("CS(=O)(=O)CCNCc1coc(-c2ccc3ncnc(Nc4ccc(OCc5ccccc5)cc4)c3c2)c1", "%", 94.1),
    ("CCCN1CCC(c2ccc(Nc3nc(Nc4cc(F)ccc4C(N)=O)c4cc[nH]c4n3)c(OC)c2)CC1", "%", 76.3),
    ("FC(F)(F)c1cccc(-c2nn3ncccc3c2-c2ccnc(Nc3ccc4c(c3)OCCO4)n2)c1", "%", 81.5),
    ("Nc1nc(-c2cccc(Cl)c2)c(-c2ccc3ncccc3n2)s1", "%", 28.1),
    ("O=C(O[C@H]1CN[C@H](C#Cc2cc3ncnc(Nc4ccc(Cc5ccccc5)cc4)c3s2)C1)N1CCOCC1", "%", 107),
    ("CC1=C(C(=O)Nc2cc(Cl)c3[nH]ncc3c2)C(c2ccc(C(F)(F)F)cc2)CC(=O)N1 (stereo not given)", "%", 31.2),
    ("COc1cccc(-c2c[nH]c3c(N/N=C/c4ccncc4)ncnc23)c1", "%", 21.9),
]

Entry source: ChEMBL document CHEMBL1961873
